# TARGET OR SYSTEM: triosephosphate isomerase (TPI) from S. aureus (Staphylococcus aureus, UniProt Q2G030)
# Construct: gene tpiA; native, purified from LiCl surface protein extract; 253 amino acids (homology model); amine-coupled to CM5 chip for SPR
# Sequence (Q2G030 whole entry): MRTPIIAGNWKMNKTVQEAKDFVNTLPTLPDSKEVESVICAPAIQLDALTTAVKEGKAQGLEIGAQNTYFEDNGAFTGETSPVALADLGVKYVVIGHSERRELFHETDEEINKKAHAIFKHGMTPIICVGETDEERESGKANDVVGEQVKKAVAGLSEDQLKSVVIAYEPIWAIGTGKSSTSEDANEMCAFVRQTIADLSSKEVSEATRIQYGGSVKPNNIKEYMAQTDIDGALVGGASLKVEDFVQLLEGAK
# EXPERIMENT: SPR (Biacore […]), TPI immobilized, heterogeneous ligand-parallel reaction fit
# Type: binding
# DETAILS: HBS-EP pH 7.4, 150 mM NaCl, 3 mM EDTA; second site of a two-site fit (stronger site)
MEASURED QUANTITY: Heterogeneous ligand-parallel reaction / Kd2 (µM)
# unit: µM | format: bare number

The following compounds have reported results that may help.
[[record]]
compound = "OC[C@H]1O[C@H](O[C@H]2[C@H](O)[C@@H](CO)OC(O)[C@H]2O)[C@@H](O)[C@@H](O)[C@@H]1O (stereo partly shown)"
target_or_system = "triosephosphate isomerase (TPI) from S. aureus (Staphylococcus aureus, UniProt Q2G030)"
units_of_measure = "µM"
reported_value = 5.37

[[record]]
compound = "OC[C@H]1O[C@H](O[C@@H]2[C@H](O)[C@@H](O[C@@H]3[C@H](O)[C@@H](O[C@H]4[C@H](O)[C@@H](CO)OC(O)[C@H]4O)O[C@H](CO)[C@H]3O)O[C@H](CO)[C@H]2O)[C@@H](O)[C@@H](O)[C@@H]1O (stereo partly shown)"
target_or_system = "triosephosphate isomerase (TPI) from S. aureus (Staphylococcus aureus, UniProt Q2G030)"
units_of_measure = "µM"
reported_value = 0.0146

[[record]]
compound = "OC[C@H]1O[C@H](O[C@@H]2[C@H](O)[C@@H](O[C@H]3[C@H](O)[C@@H](CO)OC(O)[C@H]3O)O[C@H](CO)[C@H]2O)[C@@H](O)[C@@H](O)[C@@H]1O (stereo partly shown)"
target_or_system = "triosephosphate isomerase (TPI) from S. aureus (Staphylococcus aureus, UniProt Q2G030)"
units_of_measure = "µM"
reported_value = 124


Now let's try a different one.
Heterogeneous ligand-parallel reaction / Kd2 reading for OC[C@H]1O[C@H](O[C@@H]2[C@H](O)[C@@H](O[C@@H]3[C@H](O)[C@@H](O[C@@H]4[C@H](O)[C@@H](O[C@H]5[C@H](O)[C@@H](CO)OC(O)[C@H]5O)O[C@H](CO)[C@H]4O)O[C@H](CO)[C@H]3O)O[C@H](CO)[C@H]2O)[C@@H](O)[C@@H](O)[C@@H]1O (stereo partly shown) : 18.6
